B1: PKD2L1 (parent)
chain: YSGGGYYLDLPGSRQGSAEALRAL

- Variants of: B1
- Assay: protein stability index of a GFP-peptide fusion (GPS, HEK-293T) (PSI 1-6); higher = more stable;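 note: lentivirally expressed fusions sorted by FACS into six bins by GFP to DsRed ratio, PSI derived from sequencing read proportions per bin multiplied by bin number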
- Condition notes: c terminus: a fixed tail appended
Record form. Attribute: protein stability index. Fill in for each entry.
Lab note: write the figure by itself, no unit.

What value of measured protein stability index is listed for A23M ?
2.03

What value of measured protein stability index is listed for S2N ?
1.84

What value of measured protein stability index is listed for R22P ?
1.78

What value of measured protein stability index is listed for G16H ?
2.66

What value of measured protein stability index is listed for Q15P ?
2.03

What value of measured protein stability index is listed for S13F ?
1.92

What value of measured protein stability index is listed for P11W ?
2.52

What value of measured protein stability index is listed for G3Y ?
1.7

What value of measured protein stability index is listed for G12P ?
2.05

What value of measured protein stability index is listed for Q15E ?
2.16

What value of measured protein stability index is listed for A20M ?
1.81

The measured values listed here are drawn from the supplement of paper PMC10567573.
